experiment: Cytotoxicity against human HepG2 cells assessed as cellular ATP level at 100 uM after 1 day by ATPLite assay relative to control; format: cell-based; conditions: read-out: Activity
measured endpoint: viability at 24 h, 100 µM

Query: Looking for the measured viability at 24 h, 100 µM of CNCc1cn(S(=O)(=O)c2cccc(OC)n2)c(-c2cccnc2F)c1F , can you help?
Response: 69.8%

Query: Quick one: CNCc1cn(S(=O)(=O)c2ccc(OC)cn2)c(-c2cccnc2F)c1F
Response: 80%

Query: Do the same for CNCc1cn(S(=O)(=O)c2cnccc2C)c(-c2cccnc2F)c1F please
Response: 90.9%

Query: And CNCc1cn(S(=O)(=O)c2ccc(C)nc2)c(-c2cccnc2F)c1F ?
Response: 76.7%

Query: Let us now turn to CNCc1cn(S(=O)(=O)c2cncc(F)c2)c(-c2cccnc2F)c1F
Response: 88.9%

Query: Same for CNCc1cn(S(=O)(=O)c2cncc(C)c2)c(-c2cccnc2F)c1F
Response: 86.9%

Query: Query CNCc1cn(S(=O)(=O)c2ccc(F)cn2)c(-c2cccnc2F)c1F next
Response: 86.5%

Query: What about this molecule? CNCc1cn(S(=O)(=O)c2ncccc2C)c(-c2cccnc2F)c1F
Response: 79.1%

Query: Next molecule up: CNCc1cn(S(=O)(=O)c2cccnc2C)c(-c2cccnc2F)c1F
Response: 97.4%

Query: Now try CNCc1cn(S(=O)(=O)c2cncc(Cl)c2)c(-c2cccnc2F)c1F .
Response: 66.9%

Query: Next molecule: CNCc1cn(S(=O)(=O)c2cc(OC)ccn2)c(-c2cccnc2F)c1F
Response: 84.5%

Query: Next entry: CNCc1cn(S(=O)(=O)c2cccnc2Cl)c(-c2cccnc2F)c1F
Response: 86.9%

Query: Repeat with CNCc1cn(S(=O)(=O)c2ccoc2)c(-c2cccnc2F)c1F
Response: 100%

Query: Record: CNCc1cn(S(=O)(=O)c2cccc(C)n2)c(-c2cccnc2F)c1F
Response: 83.8%

Query: // next record CNCc1cn(S(=O)(=O)c2ccccn2)c(-c2cccnc2F)c1F
Response: 94.8%

Query: Do the same for CNCc1cn(S(=O)(=O)c2cc(C)ccn2)c(-c2cccnc2F)c1F please
Response: 85.5%

Query: Then what about the molecule CNCc1cn(S(=O)(=O)c2cccc(F)n2)c(-c2cccnc2F)c1F ?
Response: 74%

Query: Now the molecule CNCc1cn(S(=O)(=O)c2ccco2)c(-c2cccnc2F)c1F
Response: 90.8%

Query: Next record, please: CNCc1cn(S(=O)(=O)c2cccs2)c(-c2cccnc2F)c1F
Response: 77.5%
